So I've got a bunch of molecules here, and I need their inhibition of SARS-CoV-2 cytopathic effect values.
system: Vero E6 infected with SARS-CoV-2; assay: inhibition of SARS-CoV-2 cytopathic effect; higher = more antiviral protection, active = above 15; conditions: 10000 nM; 48 h
Expressed in %, but write only the number.

Query: GET /values?readout=inhibition of SARS-CoV-2 cytopathic effect&system=Vero E6 infected with SARS-CoV-2&item= O=C(Cc1ccc(-c2ccc(OCCN3CCOCC3)cc2)cn1)NCc1ccccc1
Reply: -1.44

Query: Now consider CN(C)c1ccc(/C=C2\CCCN=C2c2cccnc2)cc1 and answer again.
Reply: -5.07

Query: Now consider CO[C@@]1(NC(=O)CSCC#N)C(=O)N2C(C(=O)O)=C(CSc3nnnn3C)CS[C@@H]21 and answer again.
Reply: 2.49

Query: Now consider O=C(NC(=O)c1c(F)cccc1Cl)NC1c2ccccc2-c2ccccc21 and answer again.
Reply: 0.4

Query: Now consider COc1cc(C[C@H](C)[C@H](C)Cc2ccc3c(c2)OCO3)ccc1O and answer again.
Reply: 1.91

Query: Now consider COCCCOc1cc(C[C@@H](C[C@H](N)[C@@H](O)C[C@H](C(=O)NCC(C)(C)C(N)=O)C(C)C)C(C)C)ccc1OC [aliskiren-hemifumarate] and answer again.
Reply: -0.23

Query: Now consider CN1c2cc3c(cc2N=C(c2ccc(C(=O)O)cc2)c2ccccc21)C(C)(C)CCC3(C)C and answer again.
Reply: -7.42

Query: Now consider CCc1cc2c(c(CC)n1)CCC(=O)N2Cc1ccc(-c2ccccc2-c2nnn[nH]2)cc1 and answer again.
Reply: -0.49

Query: Now consider C[C@H](N)C(=O)N[C@@]1(C(=O)O)C[C@@H](Sc2nnc[nH]2)[C@H]2[C@H](C(=O)O)[C@H]21 and answer again.
Reply: 0.56

* * *

So I've got a bunch of compounds here, and I need their inhibition of SARS-CoV-2 cytopathic effect values.
tested on: Vero E6 infected with SARS-CoV-2; assay: inhibition of SARS-CoV-2 cytopathic effect; higher = more antiviral protection, active = above 15; details: 10000 nM; 48 h
Expressed in %, but write only the number.

Query: Please give the measured inhibition of SARS-CoV-2 cytopathic effect for this compound: CCCCN1CCCCC1C(=O)Nc1c(C)cccc1C (stereo not given) [bupivacaine]
Reply: 0.61

Query: Now consider Cc1ccc(S(=O)(=O)Nc2ccc3c(c2)c(C(=O)C(F)(F)F)cn3CC(=O)N[C@@H](CC(C)C)C(=O)O)cc1 and answer again.
Reply: 3.55

Query: Now consider O=C1c2ccccc2CCC1CNCCc1ccc(O)cc1 (stereo not given) and answer again.
Reply: -0.46

Query: Now consider Nc1ncnc2c1c(-c1cccc(OCc3ccccc3)c1)cn2C1CC(CN2CCCC2)C1 (stereo in doubt) and answer again.
Reply: 27.9

Query: Now consider O=C1CCC2CCC(=O)N12 [rolziracetam] and answer again.
Reply: -2.89

Query: Now consider CC(C)=CCC/C(C)=C/CC/C(C)=C/C=C/C(C)=C/C(=O)O [peretinoin] and answer again.
Reply: 0.08

Query: Now consider CCc1cn([C@H]2C[C@H](O)[C@@H](CO)O2)c(=O)[nH]c1=O [edoxudine] and answer again.
Reply: -0.51

Query: Now consider CCOc1ccccc1OC(c1ccccc1)C1CNCCO1 (stereo not given) [reboxetine] and answer again.
Reply: -1.59

Query: Now consider COc1cccc(Nc2c(C(N)=O)cnc3c(C)cc(S(=O)(=O)c4cccc(C(=O)N(C)C)c4)cc23)c1 and answer again.
Reply: 0.48

Query: Now consider O[C@H]1CC[C@H](Nc2nc(-c3ccccc3)nc3[nH]ccc23)CC1 and answer again.
Reply: -0.8
